Known B-score functional assay of a selection of compounds
- testSystem: human NTCP (Homo sapiens)
- Sequence (Q14973 whole entry): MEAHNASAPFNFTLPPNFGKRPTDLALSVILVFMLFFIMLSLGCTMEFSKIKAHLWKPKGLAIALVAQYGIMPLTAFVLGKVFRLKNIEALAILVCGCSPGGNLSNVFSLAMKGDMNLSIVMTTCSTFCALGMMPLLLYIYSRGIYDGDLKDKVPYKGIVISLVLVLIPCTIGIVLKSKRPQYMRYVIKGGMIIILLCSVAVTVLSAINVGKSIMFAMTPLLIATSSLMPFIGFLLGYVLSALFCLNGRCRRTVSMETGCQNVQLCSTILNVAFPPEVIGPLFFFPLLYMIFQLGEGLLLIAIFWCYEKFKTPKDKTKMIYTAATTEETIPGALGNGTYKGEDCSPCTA
- experimentNotes: Screening taurocholate uptake assay (96-well, [14C]taurocholate, 10 µM drug)
- studyConditions: screen, 10 µM drug, taurocholate uptake
Where a name gives a salt, the structure may show the parent alone.
Enter a number only.

Fill in the blank: the reported B-score functional assay of Nc1nc(=S)c2ncn([C@@H]3O[C@H](CO)[C@@H](O)[C@H]3O)c2[nH]1 [Thioguanosine] is ____. -0.426

Fill in the blank: the reported B-score functional assay of CCN[C@@H](C)Cc1cccc(C(F)(F)F)c1 [Dexfenfluramine hydrochloride] is ____. -0.697

Fill in the blank: the reported B-score functional assay of COc1ccc(C(=O)N2CCCC2=O)cc1 [Aniracetam] is ____. -1.196

Fill in the blank: the reported B-score functional assay of Cc1ccsc1/C=C/C1=NCCCN1C [Morantel tartrate] is ____. -0.483

Fill in the blank: the reported B-score functional assay of COc1ccc2[nH]c([S+]([O-])Cc3ncc(C)c(OC)c3C)nc2c1 (stereo not drawn) [Omeprazole] is ____. -0.074

Fill in the blank: the reported B-score functional assay of O=C(O)CCc1nc(-c2ccccc2)c(-c2ccccc2)o1 [Oxaprozin] is ____. -0.957

Fill in the blank: the reported B-score functional assay of COc1ccc([C@@H]2Sc3ccccc3N(CCN(C)C)C(=O)[C@@H]2OC(C)=O)cc1 [Diltiazem hydrochloride] is ____. -0.552

Fill in the blank: the reported B-score functional assay of COc1ccc(C(=O)c2ccccc2O)c(O)c1 [Dioxybenzone] is ____. 0.002

Fill in the blank: the reported B-score functional assay of O=C(O)CN(CCN(CC(=O)O)CC(=O)O)CCN(CC(=O)O)CC(=O)O [Pentetic acid] is ____. -0.313
